Every entry's value here was drawn from PubChem BioAssay AID463173.

Tested on: DeltatarO mutant
EXPERIMENT_NOTES: S. aureus survival, RN4220 and DeltatarO strains – OD600, teichoic acid synthesis inhibitors, primary screen (AID 463173)
MEASUREMENT_CONDITIONS: S. aureus RN4220 wild type/DeltatarO growth, OD600, 18 h, screened at 18.75 µg/mL (by protocol)
The campaign covered roughly 52,000 compounds. About 4,300 (8.3%) were called active. No stated cut-off is given here; in the data, active means survival mostly below about 52% (no sharp cut-off); inactive means mostly above about 56%. Only a selection was taken, and actives are over-represented in it overall.
# output must be one of active, inactive

Lab log entry: O=C(NC1CCCC1)c1ccc2c(=O)n(Cc3ccccc3)c(SCc3cccc([N+](=O)[O-])c3)nc2c1 — outcome as called in the assay?
inactive

Lab log entry: O=C(Nc1ccc(C(=O)OCc2cc(=O)n3c4c(sc3n2)CCCC4)cc1)c1ccc(F)cc1 — outcome as called in the assay?
inactive

Lab log entry: CCOc1ccc(/C=C/C(=O)Nc2sc3c(c2C(=O)OC)C(C(=O)OC)CC3)cc1 (stereo unspecified) — outcome as called in the assay?
inactive

Lab log entry: CCOC(=O)c1c(Nc2ccc(F)cc2)nnc(-c2ccccc2)c1-c1ccccc1 — outcome as called in the assay?
active

Lab log entry: CC(=O)OC1=CN(Cc2ccccc2)S(=O)(=O)c2ccccc21 — outcome as called in the assay?
inactive

Lab log entry: Cc1ccc(CNC(=O)C2CCN(c3nc4ccccc4n(C)c3=O)CC2)cc1 — outcome as called in the assay?
inactive

Lab log entry: COC(=O)c1c(NC(=O)CCCOc2cccc(C)c2)sc2c1C(C(=O)OC)CC2 (stereo unspecified) — outcome as called in the assay?
active

###

System: DeltatarO mutant
EXPERIMENT_NOTES: S. aureus survival, RN4220 and DeltatarO strains – OD600, teichoic acid synthesis inhibitors, primary screen (AID 463173)
MEASUREMENT_CONDITIONS: S. aureus RN4220 wild type/DeltatarO growth, OD600, 18 h, hits give low values, screened at 18.75 µg/mL (by protocol)
About 4,300 (8.3%) of roughly 52,000 compounds were called active. Shown is part of a subset that was picked to be rich in actives.
ENDPOINT: survival (%)
Numbers only, in %.

Previously resolved entries follow.
{"columns": ["COMPOUND", "UNIT_DESCRIPTOR", "survival"],
 "data": [
  ["CN1CCN(C(=O)/C(=C/c2cccs2)NC(=O)c2cccs2)CC1", "%", 74],
  ["COc1ccc(NC(=O)/C(C#N)=C/c2ccc(OCc3cc(=O)n4nc(C)sc4n3)cc2)cc1", "%", 61],
  ["CCc1ccc(NC(=O)CSc2cn(CC(=O)N3CCOCC3)c3ccccc23)cc1", "%", 86],
  ["O=C(COc1cccc(Cl)c1)N1CCC(c2nc3ccccc3s2)CC1", "%", 44],
  ["CCOc1ccc(-c2n[nH]c3c2C(c2ccccc2OC)N(c2ccc(Br)cc2)C3=O)cc1 (centres undefined)", "%", 69],
  ["CCN1CCN(CCCNC(=O)c2cnn(-c3ccc(C)cc3C)c2C2CCN(C(=O)OC(C)(C)C)CC2)CC1", "%", 144],
  ["CCCOc1ccc(-c2nc(SCC(=O)c3ccc(Cl)cc3)n[nH]2)cc1", "%", 187],
  ["CCCN1C(=O)C2(c3ccccc31)c1c(oc3ccc(C)cc3c1=O)C(=O)N2CCOC (centres undefined)", "%", 60]
]}

# batch: return survival for each of the 3 compounds below
1. Cc1cc(Cl)ccc1OCC(=O)N1CCC(c2nc3ccccc3o2)CC1
2. CCOc1cc(/C=C(\C#N)C(=O)Nc2ccc(OC)cc2)ccc1OCc1cc(=O)n2nc(CC)sc2n1
3. CC(C)(C)c1ccc(OCC(=O)N2CCC(c3nc4ccccc4s3)CC2)cc1

1. 54
2. 55
3. 84

# batch: return survival for each of the 3 compounds below
1. CCc1nn2c(=O)cc(COc3ccc(/C=C(\C#N)C(=O)Nc4ccc(F)cc4)cc3OC)nc2s1
2. Cc1nc2c3cccnc3nn2c(C)c1CCC(=O)NCc1ccccc1
3. CC(C)(C)OC(=O)N1CCC(c2c(C(=O)NC3CCN(Cc4ccccc4)CC3)cnn2-c2cccc(F)c2)CC1

[106, 110, 92]

###

Test system: DeltatarO mutant
EXPERIMENT_NOTES: S. aureus survival, RN4220 and DeltatarO strains – OD600, teichoic acid synthesis inhibitors, primary screen (AID 463173)
MEASUREMENT_CONDITIONS: S. aureus RN4220 wild type/DeltatarO growth, OD600, 18 h, hits give low values, screened at 18.75 µg/mL (by protocol)
In all, about 52,000 compounds went through this assay and about 4,300 (8.3%) were called active. For the sample, actives were picked, then their nearest neighbours and some compounds at random.
Kindly state survival for each of the entries shown.

{"columns": ["MOLECULE", "MEASURED_TARGET", "survival"],
 "data": [
  ["CCCC12CCC(C(=O)O)(CC1)CC2", "DeltatarO mutant", "83% (inactive)"]
]}

# batch: return survival for each of the 7 molecules below
1. Cc1ccccc1NC(=O)c1c(C)oc2ccc(O)c(CN3CCCC3)c12
2. Cc1cc2ncn(S(=O)(=O)c3ccc(S(=O)(=O)NCC4CCCO4)cc3)c2cc1C (configuration not stated)
3. COc1ccc(NC(=O)Cn2c(=O)n(-c3ccc(CC(=O)NCC4CCCO4)cc3)c(=O)c3ccccc32)c(OC)c1 (configuration not stated)
4. C[N+](C)(C)CCNC(=O)c1ccc(/C=N/O)nc1
5. N#CC(C#N)=Cc1ccc(-c2ccc3c(c2)COC3=O)o1
6. COc1ccc(/C=C(\NC(=O)c2ccccc2)C(N)=O)cc1
7. Cc1cc(C)cc(NC(=O)CSc2cc(C)[nH]c(=O)n2)c1

80% (inactive)
82% (inactive)
102% (inactive)
81% (inactive)
90% (inactive)
79% (inactive)
90% (inactive)

###

Tested on: DeltatarO mutant
EXPERIMENT_NOTES: S. aureus survival, RN4220 and DeltatarO strains – OD600, teichoic acid synthesis inhibitors, primary screen (AID 463173)
MEASUREMENT_CONDITIONS: S. aureus RN4220 wild type/DeltatarO growth, OD600, 18 h, hits give low values, screened at 18.75 µg/mL (by protocol)
The whole screen tested about 52,000 compounds, of which about 4,300 (8.3%) were called active. The list comes from a sample in which actives are over-represented; it also holds close analogues and randomly drawn compounds.
Kindly state survival for each of the entries shown.

{"columns": ["SMI", "MEASURED_TARGET", "EXPERIMENTAL_RESULT"],
 "data": [
  ["CCOc1ccc(-n2cc(C(=O)Nc3ccccc3OCC)c3cc(OC)c(OC)cc3c2=O)cc1", "DeltatarO mutant", "61% (inactive)"],
  ["CCCCn1c(CCCNC(=O)c2cccc(C)c2)nc2ccccc21", "DeltatarO mutant", "55% (inactive)"],
  ["CCCCn1c(C)nc2ccccc21", "DeltatarO mutant", "104% (inactive)"]
]}

# batch: return survival for each of the 4 compounds below
1. Cn1nnc2c(N3CCN(c4ccc(F)cc4)CC3)ncnc21
2. CCCCCn1c(-c2ccc(OC)c(OC)c2)nc2ccccc21
3. CCCCCn1c(CCNC(=O)c2cccc(C)c2)nc2ccccc21
4. COc1ccc(N2CCN(c3ncnc4c3nnn4C)CC2)cc1

["99% (inactive)", "1% (active)", "32% (active)", "0% (active)"]

# batch: return survival for each of the 4 compounds below
1. CCOC(=O)C1CCN(c2nc(-c3ccc(Br)cc3)nc3ccccc23)CC1
2. CCCCCn1c(CCCNC(=O)c2cccc(C)c2)nc2ccccc21
3. CN(C)c1ccc(CNS(=O)(=O)c2csc(C(N)=O)c2)cc1
4. Cn1nnc2c(N3CCN(c4ccccc4)CC3)ncnc21

1. 83% (inactive)
2. 51% (inactive)
3. 60% (inactive)
4. 74% (inactive)

###

Kindly state survival for each of the entries shown.
System: DeltatarO mutant
EXPERIMENT_NOTES: S. aureus survival, RN4220 and DeltatarO strains – OD600, teichoic acid synthesis inhibitors, primary screen (AID 463173)
MEASUREMENT_CONDITIONS: S. aureus RN4220 wild type/DeltatarO growth, OD600, 18 h, hits give low values, screened at 18.75 µg/mL (by protocol)
The whole screen tested about 52,000 compounds, of which about 4,300 (8.3%) were called active. For the sample, actives were picked, then their nearest neighbours and some compounds at random.
One number for each entry, in %.

{"columns": ["COMPOUND", "UNIT_DESCRIPTOR", "survival"],
 "data": [
  ["COc1ccc(NC(=O)C2CCN(S(=O)(=O)c3c(C)noc3/C=C/c3cccs3)CC2)cc1", "%", 90],
  ["Cc1ccc(CNc2nc3c(c(=O)n(C)c(=O)n3C)n2Cc2ccc(Cl)cc2)cc1", "%", 54]
]}

# batch: return survival for each of the 5 compounds below
1. Cc1nc2ccn(Cc3ccccc3)c(=O)c2cc1C(=O)N1CCN(c2ccc(F)cc2)CC1
2. Cc1ccc(-c2cnc(NCc3ccc(C(C)C)cc3)n2C)cc1
3. COCCOC(=O)C1=C(C)N=C2SCCC(=O)N2C1c1ccc(OCc2ccccc2)c(OC)c1 (stereo not given)
4. COc1ccc(-c2cnc(NCc3ccc(C)cc3)n2C)cc1
5. CCOc1ccc(-c2cnc(NCc3ccc(C(F)(F)F)cc3)n2C)cc1

1. 95
2. -4
3. 58
4. 121
5. -3
